Test system: normotensive rats
Test: Influence on blood pressure in the normotensive rats
Type: in vivo, rat
Settings: 2.5 mg/kg iv, 20 min; mean ± SD
MEASURED_METRIC: SBP—systolic blood pressure (mmHg)

{"MOL": "Cl.NC(=O)c1ccccc1OCCCCCCN1CCN(c2cccc(Cl)c2)CC1", "VALUE": 108.8}
{"MOL": "COc1ccccc1N1CCN(Cc2ccc(COc3ccccc3C(N)=O)cc2)CC1.Cl", "VALUE": 109.7}

* * *

List of Mortality values.
Test system: calcium chloride-induced arrhythmia model in rats
Experiment: Prophylactic antiarrhythmic activity in calcium chloride-induced arrhythmia
Format: in vivo, rat
Details: 5 mg/kg iv 15 min before calcium chloride 140 mg/kg; number of animals with event
MEASURED_METRIC: Mortality

{"MOL": "Cl.NC(=O)c1ccccc1OCCCCCCN1CCN(c2cccc(Cl)c2)CC1", "VALUE": "5/6"}
{"MOL": "COc1ccccc1N1CCN(Cc2cccc(COc3ccccc3C(N)=O)c2)CC1.Cl", "VALUE": "6/6"}
{"MOL": "Cl.NC(=O)c1ccccc1OCCCCN1CCN(c2cccc(Cl)c2)CC1", "VALUE": "6/6"}
{"MOL": "Cl.NC(=O)c1ccccc1OCCCCCN1CCN(c2cccc(Cl)c2)CC1", "VALUE": "6/6"}
{"MOL": "COc1ccccc1N1CCN(CCCCOc2ccccc2C(N)=O)CC1.Cl", "VALUE": "6/6"}
{"MOL": "COc1ccccc1N1CCN(Cc2ccc(COc3ccccc3C(N)=O)cc2)CC1.Cl", "VALUE": "6/6"}

The measured values listed here are drawn from paper PMC9820316.
